- target-or-system: UniProt:Q96RI1
- measurement-notes: Transactivation of human FXR expressed in human HeLa cells incubated for 24 hrs by luciferase reporter gene assay
As shown below, each of these compounds has a reported pEC50 value.
Scale for pEC50: -log10 of concentration given in mol/L; no unit attached.

Sample records with pEC50:
[
  {
    "smiles-text": "CSc1ccc(C(=O)Nc2ccccc2C(=O)Nc2cccc(CC(=O)O)c2)cc1",
    "measured-value": 5.07
  },
  {
    "smiles-text": "O=C(O)CCc1cccc(NC(=O)c2ccccc2NC(=O)c2ccc(C(F)(F)F)cc2)c1",
    "measured-value": 5.64
  },
  {
    "smiles-text": "O=C(O)c1cccc(NC(=O)c2ccc(Cl)cc2NC(=O)c2ccc(C(F)(F)F)cc2)c1",
    "measured-value": 5.68
  }
]

Can you share its pEC50? I mean this compound: O=C(O)Cc1cccc(NC(=O)c2ccccc2NC(=O)c2ccc(-c3ccccc3)cc2)c1 6.15

What do we get for CC(C)(C)c1ccc(C(=O)Nc2ccccc2C(=O)Nc2cccc(C(N)=O)c2)cc1 ? 7.15

What do we get for O=C(O)Cc1cccc(NC(=O)c2ccccc2NC(=O)c2ccc(C(F)(F)F)cc2)c1 ? 5.59

What do we get for O=C(O)Cc1cccc(NC(=O)c2ccccc2NC(=O)c2ccc(SC(F)(F)F)cc2)c1 ? 5.15

What do we get for O=C(O)c1cccc(NC(=O)c2cc(Cl)ccc2NC(=O)c2ccc(C(F)(F)F)cc2)c1 ? 5.47

What do we get for CC(C)(C)c1ccc(C(=O)Nc2cc(Cl)ccc2C(=O)Nc2cccc(C(=O)O)c2)cc1 ? 6.92

What do we get for CC(C)(C)c1ccc(C(=O)Nc2ccccc2C(=O)Nc2cccc(CCC(=O)O)c2)cc1 ? 7.22

====

- target-or-system: UniProtKB Q96RI1
- Sequence (whole entry): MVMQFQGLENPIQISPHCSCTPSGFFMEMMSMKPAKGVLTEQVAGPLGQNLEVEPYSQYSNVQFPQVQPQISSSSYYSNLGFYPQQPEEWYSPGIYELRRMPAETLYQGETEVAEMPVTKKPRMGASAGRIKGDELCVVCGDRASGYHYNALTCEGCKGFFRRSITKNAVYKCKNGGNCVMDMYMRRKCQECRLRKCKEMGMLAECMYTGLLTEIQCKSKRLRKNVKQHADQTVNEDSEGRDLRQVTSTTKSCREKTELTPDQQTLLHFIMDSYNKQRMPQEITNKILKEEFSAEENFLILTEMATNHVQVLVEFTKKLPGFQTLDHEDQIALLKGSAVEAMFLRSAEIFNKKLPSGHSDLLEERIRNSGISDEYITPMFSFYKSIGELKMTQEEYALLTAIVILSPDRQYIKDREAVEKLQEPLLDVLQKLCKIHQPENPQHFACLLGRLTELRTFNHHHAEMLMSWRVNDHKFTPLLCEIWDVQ
- measurement-notes: Transactivation of human FXR expressed in human HeLa cells at 30 uM incubated for 24 hrs by luciferase reporter gene assay
- Assay type: cell-based
Calls of active or inactive are those of the source. The rule behind the calls is not given here.
measured-metric: Activity

[
  {
    "smiles-text": "O=C(O)CCCNC(=O)c1ccccc1NC(=O)c1ccc(-c2ccccc2)cc1",
    "measured-metric": "Activity",
    "measured-value": "inactive"
  },
  {
    "smiles-text": "Cc1ccc(C(=O)O)cc1NC(=O)c1ccccc1NC(=O)c1ccc(C(C)(C)C)cc1",
    "measured-metric": "Activity",
    "measured-value": "inactive"
  },
  {
    "smiles-text": "O=C(O)CCCNC(=O)c1ccccc1NC(=O)c1cccc(-c2ccccc2)c1",
    "measured-metric": "Activity",
    "measured-value": "inactive"
  },
  {
    "smiles-text": "COc1ccc(C(=O)Nc2ccccc2C(=O)Nc2cccc(CC(=O)O)c2)cc1OC",
    "measured-metric": "Activity",
    "measured-value": "inactive"
  },
  {
    "smiles-text": "CN(CCCC(=O)O)C(=O)c1ccccc1NC(=O)c1ccc2ccccc2c1",
    "measured-metric": "Activity",
    "measured-value": "inactive"
  },
  {
    "smiles-text": "COc1ccc(C(=O)Nc2ccccc2C(=O)Nc2cccc(CC(=O)O)c2)cc1",
    "measured-metric": "Activity",
    "measured-value": "inactive"
  },
  {
    "smiles-text": "O=C(O)c1cccc(NC(=O)c2ccccc2NC(=O)c2cc(C(F)(F)F)cc(C(F)(F)F)c2)c1",
    "measured-metric": "Activity",
    "measured-value": "inactive"
  },
  {
    "smiles-text": "O=C(O)CCCNC(=O)c1ccccc1NC(=O)C(c1ccccc1)c1ccccc1",
    "measured-metric": "Activity",
    "measured-value": "inactive"
  }
]

Can you share its Activity? I mean this compound: O=C(O)c1cccc(NC(=O)c2c(Cl)cccc2NC(=O)c2ccc(C(F)(F)F)cc2)c1 inactive

What do we get for CC(C)(C)c1ccc(C(=O)Nc2cccc(Cl)c2C(=O)Nc2cccc(C(=O)O)c2)cc1 ? inactive

What do we get for N#Cc1ccc(C(=O)Nc2ccccc2C(=O)Nc2cccc(CC(=O)O)c2)cc1 ? inactive

What do we get for O=C(O)CCCNC(=O)c1ccccc1NC(=O)c1cccc2ccccc12 ? inactive

What do we get for CN(C(=O)c1ccc2ccccc2c1)c1ccccc1C(=O)NCCCC(=O)O ? inactive

What do we get for O=C(O)CCCNC(=O)c1ccccc1NC(=O)c1ccccc1-c1ccccc1 ? inactive

What do we get for CC(C)(C)c1ccc(C(=O)Nc2c(Cl)cccc2C(=O)Nc2cccc(C(=O)O)c2)cc1 ? inactive

====

As shown below, each of these molecules has a reported viability at 48 h, 5 µM value.
- measurement-notes: Antiproliferative activity against human HepG2 cells assessed as cell viability at 5 uM after 48 hrs by WST1 assay (reference value: 100%)
- Type: cell-based
- cond: read-out: Activity
Kindly provide the numeric value in % only, without the unit symbol.

Sample records with viability at 48 h, 5 µM:
[
  {
    "smiles-text": "Cc1ccc(NC(=O)c2ccccc2NC(=O)c2ccc(C(C)(C)C)cc2)cc1C(=O)O",
    "viability at 48 h, 5 µM, %": 106
  },
  {
    "smiles-text": "O=C(O)Cc1cccc(NC(=O)c2ccccc2NC(=O)c2ccc(-c3ccccc3)cc2)c1",
    "viability at 48 h, 5 µM, %": 96.5
  },
  {
    "smiles-text": "Cc1ccc(C(=O)O)cc1NC(=O)c1ccccc1NC(=O)c1ccc(C(C)(C)C)cc1",
    "viability at 48 h, 5 µM, %": 95.7
  }
]

Next, consider the following molecule.
Can you share its viability at 48 h, 5 µM? I mean this molecule: O=C(O)Cc1cccc(NC(=O)c2ccccc2NC(=O)c2ccc3ccccc3c2)c1 99.5

====

- measurement-notes: Metabolic stability in Sprague-Dawley rat liver microsomes assessed as parent compound remaining at 10 uM measured after 30 mins in presence of NADPH regenerating system by HPLC method (reference value: 97.6 +/- 0.8%)
- Format: ADME
- cond: read-out: Stability
measured-metric: remaining at 0.5 h, 10 µM (%)
Kindly provide the numeric value in % only, without the unit symbol.

Can you share its remaining at 0.5 h, 10 µM? I mean this compound: O=C(O)Cc1cccc(NC(=O)c2ccccc2NC(=O)c2ccc3ccccc3c2)c1 82.3

====

- measurement-notes: Antiproliferative activity against human HepG2 cells assessed as cell viability at 10 uM after 48 hrs by WST1 assay (reference value: 100%)
- Type: cell-based
- cond: read-out: Activity
As shown below, each of these compounds has a reported viability at 48 h, 10 µM value.
Kindly provide the numeric value in % only, without the unit symbol.

Can you share its viability at 48 h, 10 µM? I mean this compound: Cc1ccc(C(=O)O)cc1NC(=O)c1ccccc1NC(=O)c1ccc(C(C)(C)C)cc1 92.2

What do we get for O=C(O)Cc1cccc(NC(=O)c2ccccc2NC(=O)c2ccc3ccccc3c2)c1 ? 115

What do we get for O=C(O)Cc1cccc(NC(=O)c2ccccc2NC(=O)c2ccc(-c3ccccc3)cc2)c1 ? 79.5

What do we get for Cc1ccc(NC(=O)c2ccccc2NC(=O)c2ccc(C(C)(C)C)cc2)cc1C(=O)O ? 99.6

====

- measurement-notes: Cytotoxic activity against human HepG2 cells assessed as LDH release at 5 uM after 48 hrs by LDH release assay (reference value: 100%)
measured-metric: LDH release (% cytotoxicity) at 48 h, 5 µM (%)
Kindly provide the numeric value in % only, without the unit symbol.

Sample records with LDH release (% cytotoxicity) at 48 h, 5 µM:
[
  {
    "smiles-text": "Cc1ccc(C(=O)O)cc1NC(=O)c1ccccc1NC(=O)c1ccc(C(C)(C)C)cc1",
    "measurement-units": "%",
    "measured-value": -1.3
  },
  {
    "smiles-text": "Cc1ccc(NC(=O)c2ccccc2NC(=O)c2ccc(C(C)(C)C)cc2)cc1C(=O)O",
    "measurement-units": "%",
    "measured-value": -0.1
  },
  {
    "smiles-text": "O=C(O)Cc1cccc(NC(=O)c2ccccc2NC(=O)c2ccc(-c3ccccc3)cc2)c1",
    "measurement-units": "%",
    "measured-value": -4.5
  }
]

Next, consider the following compound.
Can you share its LDH release (% cytotoxicity) at 48 h, 5 µM? I mean this compound: O=C(O)Cc1cccc(NC(=O)c2ccccc2NC(=O)c2ccc3ccccc3c2)c1 -2.4
